Tested on: LOX IMVI
Assay: NCI tumour cell line growth inhibition, 48 h
Activity calls are given as the source filed them. Rule as the data show it: active = GI50 up to about 1.1 µM and inactive = higher.
Outcome codes: active, inactive

>  <molecule>
C=CCN1C(=O)CC1N(CC=C)S(=O)(=O)c1ccc(C)cc1 (stereo not drawn)

>  <assigned category>
inactive

$$$$
>  <molecule>
N#CC(C(=O)O)C(c1c(Cl)cccc1Cl)C(C#N)C(=O)O (stereo not drawn)

>  <assigned category>
inactive

$$$$
>  <molecule>
Cc1cc2nc3c(C#N)c4c(c(Nc5ccc(Cl)cc5)n3c2cc1C)CCC4

>  <assigned category>
inactive

$$$$
>  <molecule>
CCC(=O)OCN(C)c1nc(N(C)COC(=O)CC)nc(N(C)COC(=O)CC)n1

>  <assigned category>
inactive

$$$$
>  <molecule>
COC(=O)CCC(NC(=S)N/N=C(\C)c1nccs1)C(=O)OC (stereo not drawn)

>  <assigned category>
inactive

$$$$
>  <molecule>
C=C1c2nc3ccccc3n2C=C(c2ccccc2)N1c1ccccc1

>  <assigned category>
inactive

$$$$
>  <molecule>
COc1c(CCl)cc(-c2cc(=O)c3ccccc3s2)cc1CCl

>  <assigned category>
inactive

$$$$
>  <molecule>
CC1(C)C=CC(=O)C(O)C(C)(C)C1=O (stereo not drawn)

>  <assigned category>
inactive

$$$$
>  <molecule>
CS(=O)(=O)OCCCNCCCOS(C)(=O)=O

>  <assigned category>
inactive

$$$$
>  <molecule>
Nc1c2c(nc3cc(F)c(F)cc13)CCC2

>  <assigned category>
inactive

$$$$
>  <molecule>
C=C1c2nc3ccccc3n2C=C(c2ccc(OC)cc2)N1c1ccccc1

>  <assigned category>
inactive

$$$$
>  <molecule>
Clc1ccc(OCc2nnc3sc(-c4ccc(-c5ccc(Cl)cc5Cl)o4)nn23)c(Cl)c1

>  <assigned category>
inactive

$$$$
>  <molecule>
C/C(=N\Nc1nc2ccccc2s1)c1cc2ccccc2cn1

>  <assigned category>
inactive

$$$$
>  <molecule>
COc1cc(C/C=C/c2ccccc2)c(OC)cc1O [VIOLASTYRENE]

>  <assigned category>
inactive

$$$$
>  <molecule>
O=C(Nc1ccc(S(=O)(=O)Nc2ncccn2)cc1)c1c2ccccc2nc2ccccc12

>  <assigned category>
inactive

$$$$
>  <molecule>
C/C(=N\NC(N)=S)C(CN(CC(C)C)CC(C)C)C(=O)Nc1ccc(C)cc1C (stereo not drawn)

>  <assigned category>
inactive

$$$$
>  <molecule>
CC(=O)N1N=C(c2cc(C)ccc2O)CC1c1cccc(Cl)c1 (stereo not drawn)

>  <assigned category>
inactive

$$$$
>  <molecule>
COc1ccc2nc3c([N+](=O)[O-])ccc(NCCN(C)C)c3c(N)c2c1

>  <assigned category>
active

$$$$

---

Tested on: SK-MEL-28
Experiment: NCI tumour cell line growth inhibition, 48 h
Calls of active or inactive are those of the source. Rule as the data show it: active = GI50 up to about 1.1 µM and inactive = higher.
We begin with a simple list: items and their reported GI50.

>  <compound>
O=C1/C(=C\c2cccc(Oc3ccccc3)c2)SC(c2ccccc2)N1c1cc(Cl)ccc1Cl (configuration not stated)

>  <target or system>
SK-MEL-28

>  <GI50>
37.1 µM (inactive)

$$$$
>  <compound>
OC[P+](CO)(CO)C12CC3CC(CC(C3)C1)C2

>  <target or system>
SK-MEL-28

>  <GI50>
> 100 µM (inactive)

$$$$
>  <compound>
Cc1c(S(=O)(=O)c2ccccc2)c(N)n(CCN(C)C)c1C

>  <target or system>
SK-MEL-28

>  <GI50>
> 100 µM (inactive)

$$$$
>  <compound>
N#C/C(=C1/c2cc([N+](=O)[O-])ccc2-c2c1cc([N+](=O)[O-])cc2[N+](=O)[O-])N1CCCCC1

>  <target or system>
SK-MEL-28

>  <GI50>
> 100 µM (inactive)

$$$$
>  <compound>
O=C1CCCC[C@H]1[C@H]1CCC[C@@H]([C@H]2CCCCC2=O)C1=O

>  <target or system>
SK-MEL-28

>  <GI50>
> 100 µM (inactive)

$$$$
>  <compound>
N#CC(C(=O)O)C(c1c(Cl)cccc1Cl)C(C#N)C(=O)O (configuration not stated)

>  <target or system>
SK-MEL-28

>  <GI50>
> 100 µM (inactive)

$$$$
>  <compound>
Oc1cc(-c2ccccn2)nc2cc(F)ccc12

>  <target or system>
SK-MEL-28

>  <GI50>
> 100 µM (inactive)

$$$$

These entries and their values trace back to ChEMBL document CHEMBL1201862.
